inhibition at 10 µM values by entry
Target: Alpha1B (Homo sapiens)
Construct: purchased NIMH Psychoactive Drug Screening Program (PDSP)
Sequence (P35368 whole entry): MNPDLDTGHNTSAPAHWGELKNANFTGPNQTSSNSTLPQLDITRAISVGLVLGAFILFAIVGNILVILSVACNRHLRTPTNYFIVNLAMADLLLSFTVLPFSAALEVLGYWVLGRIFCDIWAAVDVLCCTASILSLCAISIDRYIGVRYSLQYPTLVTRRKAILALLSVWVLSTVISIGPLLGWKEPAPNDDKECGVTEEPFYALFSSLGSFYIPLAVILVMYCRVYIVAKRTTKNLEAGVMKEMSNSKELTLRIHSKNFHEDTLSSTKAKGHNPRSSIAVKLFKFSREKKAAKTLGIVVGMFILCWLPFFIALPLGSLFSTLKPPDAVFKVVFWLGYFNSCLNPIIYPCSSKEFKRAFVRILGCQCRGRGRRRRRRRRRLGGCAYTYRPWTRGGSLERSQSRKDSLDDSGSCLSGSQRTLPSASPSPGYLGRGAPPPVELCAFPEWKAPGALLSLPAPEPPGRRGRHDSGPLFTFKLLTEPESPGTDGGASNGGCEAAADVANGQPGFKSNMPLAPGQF
Test: PDSP primary binding Alpha1B
Details: 1.5 h; primary binding, 10,000 nM; last figure of the line = mean of the 4 before it; read-out: Alpha1B, PDSP raw data, mean
Observable: inhibition at 10 µM (%)

Smiles notation	Quantitative readout
C[C@H]1N=C(c2ccccc2F)c2cc(Cl)ccc2-n2cnc(-c3nc(C4CC4)no3)c21	10.8
CC(C)c1noc(-c2ncn3c2[C@@H](C)N=C(c2ccccc2F)c2cc(Cl)ccc2-3)n1	4.27
C#Cc1ccc2c(c1)C(c1ccccn1)=N[C@@H](C)c1c(C(=O)NC)ncn1-2	22.2
CCc1noc(-c2ncn3c2[C@@H](C)N=C(c2ccccc2F)c2cc(C4CC4)ccc2-3)n1	9.31

====

Target: H4 (Homo sapiens, UniProt Q9H3N8)
Construct: purchased NIMH Psychoactive Drug Screening Program (PDSP)
Sequence (Q9H3N8 whole entry): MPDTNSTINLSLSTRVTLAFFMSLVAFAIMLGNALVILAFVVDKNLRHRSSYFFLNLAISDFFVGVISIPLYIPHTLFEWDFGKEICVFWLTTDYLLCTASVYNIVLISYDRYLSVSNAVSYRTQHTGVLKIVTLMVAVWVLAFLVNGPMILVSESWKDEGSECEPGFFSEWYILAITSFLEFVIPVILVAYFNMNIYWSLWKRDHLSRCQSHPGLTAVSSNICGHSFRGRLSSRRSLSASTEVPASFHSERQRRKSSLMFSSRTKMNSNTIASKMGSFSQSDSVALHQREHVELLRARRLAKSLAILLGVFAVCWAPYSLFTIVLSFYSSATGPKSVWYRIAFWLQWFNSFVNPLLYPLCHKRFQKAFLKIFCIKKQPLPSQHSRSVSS
Test: PDSP primary binding H4
Settings: primary binding, 10,000 nM; last figure of the line = mean of the 4 before it; read-out: H4, PDSP raw data, mean
inhibition at 10 µM values by entry
Observable: inhibition at 10 µM (%)

Compound	Readout units	Quantitative readout
CCc1noc(-c2ncn3c2CN=C(c2ccccc2F)c2cc(C4CC4)ccc2-3)n1 [Compound 44]	%	20.6
C#Cc1ccc2c(c1)C(c1ccccc1F)=N[C@H](C)c1c(C(=S)N(C)C)ncn1-2 [Compound 33]	%	0.9
CCc1noc(-c2ncn3c2[C@@H](C)N=C(c2ccccc2F)c2cc(C4CC4)ccc2-3)n1 [Compound 46]	%	21.7
CCc1noc(-c2ncn3c2[C@@H](C)N=C(c2ccccc2F)c2cc(-c4ccccc4)ccc2-3)n1 [Compound 35]	%	54.7
CCc1noc(-c2ncn3c2[C@@H](C)N=C(c2ccccc2F)c2cc(Cl)ccc2-3)n1 [Compound 36]	%	28.9
C#Cc1ccc2c(c1)C(c1ccccc1Cl)=N[C@H](C)c1c(C(=O)NC)ncn1-2 [Compound 21]	%	-4.41
CC(C)c1noc(-c2ncn3c2[C@@H](C)N=C(c2ccccc2F)c2cc(Cl)ccc2-3)n1 [Compound 37]	%	6.39
C[C@H]1N=C(c2ccccc2F)c2cc(Cl)ccc2-n2cnc(-c3nc(C4CC4)no3)c21 [Compound 38]	%	5.24
C[C@H]1N=C(c2ccccc2F)c2cc(-c3ccccc3)ccc2-n2cnc(C(=O)N(C)C)c21 [Compound 5]	%	0.9
C#Cc1ccc2c(c1)C(c1ccccn1)=N[C@@H](C)c1c(C(=O)N(C)C)ncn1-2 [Compound 31]	%	-12.6
C#Cc1ccc2c(c1)C(c1ccccc1Cl)=N[C@H](C)c1c(C(=O)N(C)CC)ncn1-2 [Compound 29]	%	-21.5
C#Cc1ccc2c(c1)C(c1ccccn1)=N[C@@H](C)c1c(C(=O)NC)ncn1-2 [Compound 23]	%	-16.8

====

BZP Rat Brain Site, PDSP raw data, mean values by entry
Tested on: BZP rat brain site
Assay: PDSP binding at BZP rat brain site
Conditions: primary binding, 10,000 nM; last figure of the line = mean of the 4 before it

Smiles notation	BZP Rat Brain Site, PDSP raw data, mean
CC(C)c1noc(-c2ncn3c2[C@@H](C)N=C(c2ccccc2F)c2cc(Cl)ccc2-3)n1	74.07%
C[C@H]1N=C(c2ccccc2F)c2cc(Cl)ccc2-n2cnc(-c3nc(C4CC4)no3)c21	88.28%
CCc1noc(-c2ncn3c2[C@@H](C)N=C(c2ccccc2F)c2cc(Cl)ccc2-3)n1	81.81%
C#Cc1ccc2c(c1)C(c1ccccc1F)=N[C@H](C)c1c(C(=S)N(C)C)ncn1-2	94.79%

====

inhibition at 10 µM values by entry
Molecular target: D4 (Homo sapiens, UniProt P21917)
Construct: purchased NIMH Psychoactive Drug Screening Program (PDSP)
Sequence (P21917 whole entry): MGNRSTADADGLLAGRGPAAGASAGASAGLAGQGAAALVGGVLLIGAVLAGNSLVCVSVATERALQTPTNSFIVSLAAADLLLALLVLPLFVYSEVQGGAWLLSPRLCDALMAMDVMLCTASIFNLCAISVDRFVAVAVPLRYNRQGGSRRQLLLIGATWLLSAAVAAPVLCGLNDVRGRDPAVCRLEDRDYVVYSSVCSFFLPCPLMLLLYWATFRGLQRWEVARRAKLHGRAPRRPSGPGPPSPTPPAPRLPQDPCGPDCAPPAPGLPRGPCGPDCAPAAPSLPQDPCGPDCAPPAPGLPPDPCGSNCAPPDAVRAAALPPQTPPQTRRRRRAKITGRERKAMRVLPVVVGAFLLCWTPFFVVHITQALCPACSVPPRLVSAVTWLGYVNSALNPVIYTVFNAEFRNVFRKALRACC
Test: PDSP primary binding D4
Settings: 1.5 h; primary binding, 10,000 nM; last figure of the line = mean of the 4 before it; read-out: D4, PDSP raw data, mean
Protocol: To determine if any off-target receptor-binding effects are present, all the novel ligands were sent to the National Institute of Mental Health (NIMH), Psychoactive Drug Screening Program (PDSP). […] The hERG-binding was also determined. […] The binding of a ligand to a receptor, ion channel, or transporter was determined in the […] of 10 µM of the appropriate reference compound. […] Radioactivity was then counted on a Microbeta counter. […]

Smiles notation	inhibition at 10 µM
C#Cc1ccc2c(c1)C(c1ccccc1Cl)=N[C@H](C)c1c(C(=O)N(C)CC)ncn1-2	1.36%
C[C@H]1N=C(c2ccccc2F)c2cc(Cl)ccc2-n2cnc(-c3nc(C4CC4)no3)c21	-3.44%
CCc1noc(-c2ncn3c2[C@@H](C)N=C(c2ccccc2F)c2cc(-c4ccccc4)ccc2-3)n1	6.05%
C#Cc1ccc2c(c1)C(c1ccccc1Cl)=N[C@H](C)c1c(C(=O)NC)ncn1-2	2.12%

====

Biological target: M3 (Homo sapiens, UniProt P20309)
Construct: purchased NIMH Psychoactive Drug Screening Program (PDSP)
Sequence (P20309 whole entry): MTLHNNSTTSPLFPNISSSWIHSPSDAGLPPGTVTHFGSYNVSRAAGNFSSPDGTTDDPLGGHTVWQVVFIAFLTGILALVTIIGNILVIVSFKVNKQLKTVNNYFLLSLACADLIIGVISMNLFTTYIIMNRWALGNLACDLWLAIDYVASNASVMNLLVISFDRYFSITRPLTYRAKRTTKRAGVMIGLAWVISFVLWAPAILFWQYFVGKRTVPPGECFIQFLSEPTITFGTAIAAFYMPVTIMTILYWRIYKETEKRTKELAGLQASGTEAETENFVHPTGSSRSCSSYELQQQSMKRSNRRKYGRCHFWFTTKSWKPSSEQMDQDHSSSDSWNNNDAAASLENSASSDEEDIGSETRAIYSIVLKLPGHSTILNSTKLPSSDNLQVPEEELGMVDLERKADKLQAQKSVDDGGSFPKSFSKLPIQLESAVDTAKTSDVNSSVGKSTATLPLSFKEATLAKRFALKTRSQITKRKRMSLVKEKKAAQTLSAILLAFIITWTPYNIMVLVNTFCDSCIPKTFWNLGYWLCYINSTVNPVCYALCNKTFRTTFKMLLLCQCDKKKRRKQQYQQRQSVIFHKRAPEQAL
Test: PDSP primary binding M3
Details: primary binding, 10,000 nM; last figure of the line = mean of the 4 before it; read-out: M3, PDSP raw data, mean
Description: To determine if any off-target receptor-binding effects are present, all the novel ligands were sent to the National Institute of Mental Health (NIMH), Psychoactive Drug Screening Program (PDSP). […] The hERG-binding was also determined. […] The binding of a ligand to a receptor, ion channel, or transporter was determined in the […] of 10 µM of the appropriate reference compound. […] Radioactivity was then counted on a Microbeta counter. […]

Compound	inhibition at 10 µM [%]
C#Cc1ccc2c(c1)C(c1ccccn1)=N[C@@H](C)c1c(C(=O)N(C)C)ncn1-2 [Compound 31]	-13
CCc1noc(-c2ncn3c2CN=C(c2ccccc2F)c2cc(C4CC4)ccc2-3)n1 [Compound 44]	-0.6
C#Cc1ccc2c(c1)C(c1ccccc1F)=N[C@H](C)c1c(C(=S)N(C)C)ncn1-2 [Compound 33]	3.03
CCc1noc(-c2ncn3c2[C@@H](C)N=C(c2ccccc2F)c2cc(-c4ccccc4)ccc2-3)n1 [Compound 35]	9.75

====

Target: hERG channels (Homo sapiens, UniProt Q12809)
Construct: purchased NIMH Psychoactive Drug Screening Program (PDSP)
Sequence (Q12809 whole entry): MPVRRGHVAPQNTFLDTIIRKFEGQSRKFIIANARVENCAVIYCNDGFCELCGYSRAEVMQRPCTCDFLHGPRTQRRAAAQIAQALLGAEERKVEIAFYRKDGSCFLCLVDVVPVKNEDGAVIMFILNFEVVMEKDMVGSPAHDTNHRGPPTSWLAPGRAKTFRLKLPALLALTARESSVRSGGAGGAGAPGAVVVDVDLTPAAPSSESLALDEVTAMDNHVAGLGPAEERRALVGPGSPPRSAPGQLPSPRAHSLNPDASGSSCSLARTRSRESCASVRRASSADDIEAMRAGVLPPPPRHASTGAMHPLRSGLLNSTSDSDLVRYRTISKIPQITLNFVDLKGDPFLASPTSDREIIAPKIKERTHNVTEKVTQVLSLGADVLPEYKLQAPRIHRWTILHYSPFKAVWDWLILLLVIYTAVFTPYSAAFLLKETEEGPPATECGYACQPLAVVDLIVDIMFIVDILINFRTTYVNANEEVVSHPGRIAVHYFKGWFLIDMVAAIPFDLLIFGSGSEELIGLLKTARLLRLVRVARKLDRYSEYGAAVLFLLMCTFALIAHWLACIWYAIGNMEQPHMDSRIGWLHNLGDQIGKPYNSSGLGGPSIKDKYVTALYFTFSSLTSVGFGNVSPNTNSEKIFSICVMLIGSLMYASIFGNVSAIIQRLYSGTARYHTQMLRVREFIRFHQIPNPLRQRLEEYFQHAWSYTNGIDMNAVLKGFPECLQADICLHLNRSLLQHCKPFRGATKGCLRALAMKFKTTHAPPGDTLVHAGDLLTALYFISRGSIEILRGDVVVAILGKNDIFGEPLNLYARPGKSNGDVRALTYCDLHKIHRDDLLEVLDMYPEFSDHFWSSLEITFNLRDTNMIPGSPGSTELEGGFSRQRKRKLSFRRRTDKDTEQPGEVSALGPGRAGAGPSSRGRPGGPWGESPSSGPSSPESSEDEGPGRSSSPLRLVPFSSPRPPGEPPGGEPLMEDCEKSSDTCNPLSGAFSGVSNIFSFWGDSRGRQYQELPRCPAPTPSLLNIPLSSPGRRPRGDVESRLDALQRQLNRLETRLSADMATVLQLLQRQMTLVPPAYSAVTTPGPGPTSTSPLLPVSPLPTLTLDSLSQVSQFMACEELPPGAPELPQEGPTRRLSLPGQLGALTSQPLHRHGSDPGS
Test: PDSP radioligand binding at hERG
Conditions: primary binding, 10,000 nM; last figure of the line = mean of the 4 before it
HERG, PDSP raw data, mean values by entry
Observable: HERG, PDSP raw data, mean (%)

Smiles notation	Observable	Quantitative readout
C#Cc1ccc2c(c1)C(c1ccccc1Cl)=N[C@H](C)c1c(C(=O)NC)ncn1-2	HERG, PDSP raw data, mean	-5.73
CCc1noc(-c2ncn3c2[C@@H](C)N=C(c2ccccc2F)c2cc(C4CC4)ccc2-3)n1	HERG, PDSP raw data, mean	4.34
C#Cc1ccc2c(c1)C(c1ccccn1)=N[C@@H](C)c1c(C(=O)NC)ncn1-2	HERG, PDSP raw data, mean	-4.24
CCc1noc(-c2ncn3c2[C@@H](C)N=C(c2ccccc2F)c2cc(Cl)ccc2-3)n1	HERG, PDSP raw data, mean	-1.15
C#Cc1ccc2c(c1)C(c1ccccn1)=N[C@@H](C)c1c(C(=O)N(C)C)ncn1-2	HERG, PDSP raw data, mean	0.95
CCc1noc(-c2ncn3c2[C@@H](C)N=C(c2ccccc2F)c2cc(-c4ccccc4)ccc2-3)n1	HERG, PDSP raw data, mean	37.34
C#Cc1ccc2c(c1)C(c1ccccc1Cl)=N[C@H](C)c1c(C(=O)N(C)CC)ncn1-2	HERG, PDSP raw data, mean	-1.55
C#Cc1ccc2c(c1)C(c1ccccc1F)=N[C@H](C)c1c(C(=S)N(C)C)ncn1-2	HERG, PDSP raw data, mean	-0.48
CCc1noc(-c2ncn3c2CN=C(c2ccccc2F)c2cc(C4CC4)ccc2-3)n1	HERG, PDSP raw data, mean	33.24
C[C@H]1N=C(c2ccccc2F)c2cc(-c3ccccc3)ccc2-n2cnc(C(=O)N(C)C)c21	HERG, PDSP raw data, mean	-0.48

====

A2A, PDSP raw data, mean values by entry
Biological target: A2A (Homo sapiens, UniProt P29274)
Construct: purchased NIMH Psychoactive Drug Screening Program (PDSP)
Sequence (P29274 whole entry): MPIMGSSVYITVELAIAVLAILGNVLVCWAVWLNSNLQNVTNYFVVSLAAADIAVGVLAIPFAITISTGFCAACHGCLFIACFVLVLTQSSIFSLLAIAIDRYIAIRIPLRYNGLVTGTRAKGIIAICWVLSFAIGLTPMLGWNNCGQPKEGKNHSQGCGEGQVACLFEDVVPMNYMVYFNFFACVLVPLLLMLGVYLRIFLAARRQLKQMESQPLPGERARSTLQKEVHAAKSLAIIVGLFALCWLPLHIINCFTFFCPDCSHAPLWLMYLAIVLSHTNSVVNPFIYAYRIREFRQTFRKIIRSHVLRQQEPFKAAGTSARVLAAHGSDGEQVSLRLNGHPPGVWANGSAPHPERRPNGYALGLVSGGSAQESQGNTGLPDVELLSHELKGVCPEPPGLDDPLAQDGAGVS
Test: PDSP primary binding A2A
Conditions: primary binding, 10,000 nM; last figure of the line = mean of the 4 before it
Observable: A2A, PDSP raw data, mean (%)

Compound	Tested system	Observable	Quantitative readout
CCc1noc(-c2ncn3c2CN=C(c2ccccc2F)c2cc(C4CC4)ccc2-3)n1 [Compound 44]	A2A (Homo sapiens, UniProt P29274)	A2A, PDSP raw data, mean	21.36
CCc1noc(-c2ncn3c2[C@@H](C)N=C(c2ccccc2F)c2cc(Cl)ccc2-3)n1 [Compound 36]	A2A (Homo sapiens, UniProt P29274)	A2A, PDSP raw data, mean	1.43
CC(C)c1noc(-c2ncn3c2[C@@H](C)N=C(c2ccccc2F)c2cc(Cl)ccc2-3)n1 [Compound 37]	A2A (Homo sapiens, UniProt P29274)	A2A, PDSP raw data, mean	-1.87
